# System: S. aureus strain 1 (MDR clinical isolate, MRSA, mecA positive)
# assayMethodText: MIC/MBC by broth micro-dilution (CLSI)
# Assay type: cell-based, Staphylococcus aureus
# cond: Staphylococcus aureus, MRSA, S. aureus Strain 1; modal value; read-out: MIC
valueType: MIC (µM)

# smilesNotation, systemUnderTest, unitAbbreviation, reportedValue
measured = [
    ("CON=Cc1cc(/C=C/C(=O)O)ccc1-c1ccc(O)c(C23CC4CC(CC(C4)C2)C3)c1", "S. aureus strain 1 (MDR clinical isolate, MRSA, mecA positive)", "µM", 9),
    ("CCCCC/C=C\\C/C=C\\CCCCCCCC(=O)Oc1ccc(-c2ccc(/C=C/C(=O)O)cc2)cc1C12CC3CC(CC(C3)C1)C2", "S. aureus strain 1 (MDR clinical isolate, MRSA, mecA positive)", "µM", 50),
    ("O=C(O)C=Cc1ccc(-c2ccc(OCCCCO)c(C34CC5CC(CC(C5)C3)C4)c2)cc1", "S. aureus strain 1 (MDR clinical isolate, MRSA, mecA positive)", "µM", 573),
    ("O=C(O)CCc1ccc(-c2ccc(O)c(C34CC5CC(CC(C5)C3)C4)c2)cc1", "S. aureus strain 1 (MDR clinical isolate, MRSA, mecA positive)", "µM", 42),
]

[1] O=C(O)/C=C/c1ccc(-c2cc3c(c(C45CC6CC(CC(C6)C4)C5)c2)OCCO3)cc1
[2] O=Cc1cc(/C=C/C(=O)O)ccc1-c1ccc(O)c(C23CC4CC(CC(C4)C2)C3)c1
For the pair 1 and 2 , which entry has the numerically smaller recorded MIC? Please respond with the label that marks your chosen entry.
2
(2: 5 µM, 1: 9 µM)

[A] O=C(O)/C(F)=C\c1ccc(-c2ccc(O)c(C34CC5CC(CC(C5)C3)C4)c2)cc1
[B] CC(=O)NCc1cc(-c2ccc(/C=C/C(=O)O)cc2)cc(C23CC4CC(CC(C4)C2)C3)c1O
[C] CC(C)(C)c1cc(-c2ccc(/C=C/C(=O)O)cc2)ccc1O
[D] N#C/C=C/c1ccc(-c2ccc(O)c(C34CC5CC(CC(C5)C3)C4)c2)cc1
[E] N=C(N)NCc1cc(/C=C/C(=O)O)ccc1-c1ccc(O)c(C23CC4CC(CC(C4)C2)C3)c1
Arrange items by their MIC values in increasing order. Lab note: record answer as labels in requested order.
A, B, E, C, D
(A: 10 µM, B: 18 µM, E: 72 µM, C: 216 µM, D: 361 µM)

[A] CC(C)(C)ON=Cc1cc(/C=C/C(=O)O)ccc1-c1ccc(O)c(C23CC4CC(CC(C4)C2)C3)c1
[B] O=Cc1cc(-c2ccc(/C=C/C(=O)O)cc2)cc(C23CC4CC(CC(C4)C2)C3)c1O
[C] O=C(O)/C=C/c1ccc(-c2ccc(O)c(C34CC5CC(CC(C5)C3)C4)c2)cc1
Put the items in sequence by MIC, from largest down. Please express your ranking as an ordered list of the labels.
B, C, A
(B: 159 µM, C: 21 µM, A: 8 µM)

---

# Tested on: S. aureus strain 1 (MDR clinical isolate, MRSA, mecA positive)
# assayMethodText: MIC/MBC by broth micro-dilution (CLSI)
# Assay type: cell-based, Staphylococcus aureus
# cond: Staphylococcus aureus, MRSA, S. aureus Strain 1; modal value of three replicates; read-out: MIC
# Protocol: The compounds were initially tested with a methicillin-resistant S. aureus and an E. faecalis clinical isolates (details in the experimental section), two MDR strains according to definition by Magiorakos et al.. The activity of studied compounds was assessed by broth micro-dilution method. Minimal Inhibitory Concentration (MIC), and Minimal Bactericidal Concentration (MBC) were determined and possible bacteriostatic or bactericidal activity was also investigated. […]
valueType: MIC (µg/mL)

# smilesNotation, unitAbbreviation, MIC
rows = [
    ("O=C(O)/C=C/c1ccc(-c2cc(CNC(=O)Nc3ccccc3)c(O)c(C34CC5CC(CC(C5)C3)C4)c2)cc1", "µg/mL", 8),
    ("CC(=O)NCc1cc(-c2ccc(/C=C/C(=O)O)cc2)cc(C23CC4CC(CC(C4)C2)C3)c1O", "µg/mL", 8),
    ("O=C(O)/C=C/c1ccc(-c2ccc(O)c(C34CC5CC(CC(C5)C3)C4)c2)cc1", "µg/mL", 8),
]

---

# System: S. aureus strain 1 (MDR clinical isolate, MRSA, mecA positive)
# assayMethodText: MIC/MBC by broth micro-dilution (CLSI)
# Format: cell-based, Staphylococcus aureus
# cond: Staphylococcus aureus, MRSA, S. aureus Strain 1; modal value of three replicates; read-out: MIC
Entries annotated with measured MIC

// known answers, use as guide
# compound, valueType, reportedValue
records = [
    ("N=C(N)NCc1cc(/C=C/C(=O)O)ccc1-c1ccc(O)c(C23CC4CC(CC(C4)C2)C3)c1 [Compound 19]", "MIC", "32 to 128 µg/mL"),
    ("N#C/C(=C\\c1ccc(-c2ccc(O)c(C34CC5CC(CC(C5)C3)C4)c2)cc1)C(=O)O [Compound 9]", "MIC", "2 to 4 µg/mL"),
    ("O=C(O)/C(F)=C\\c1ccc(-c2ccc(O)c(C34CC5CC(CC(C5)C3)C4)c2)cc1 [Compound 7]", "MIC", "2 to 4 µg/mL"),
]

What measured MIC goes with C/C(=C\c1ccc(-c2ccc(O)c(C34CC5CC(CC(C5)C3)C4)c2)cc1)C(=O)O [Compound 8] ?
2 to 4 µg/mL
